test system: SK-MEL-2; assay: NCI tumour cell line growth inhibition, 48 h
Activity calls are given as the source filed them. Cut-off read from the data, not from the text of the source: active = GI50 up to about 1.1 µM and inactive = higher.
Give GI50 for every item shown.

Some solved cases for reference:
MOLECULE: COc1ccc(/C=N/n2c(Cc3ccc(Cl)cc3)n[nH]c2=O)cc1
GI50: 21.6 µM (inactive)
//
MOLECULE: COC(=O)C(=O)C(C(=O)C(=O)Nc1ccc(Cl)cc1Cl)c1nc2ccc(Cl)cc2nc1O (stereo not given)
GI50: > 100 µM (inactive)
//
MOLECULE: CC1NC(=O)c2c(-c3ccccc3)nn(-c3ccccc3)c2NC1=O (stereo not given)
GI50: > 100 µM (inactive)
//
MOLECULE: O=C1NC(O)c2ccccc2O1 (stereo not given)
GI50: > 100 µM (inactive)
//
MOLECULE: COc1cc2c(cc1OCCCOc1cc3c(cc1OC)C(=O)N1CCC[C@H]1C(=O)N3)N=C[C@@H]1CCCN1C2=O
GI50: 12.6 µM (inactive)

// each listed molecule needs a value for GI50
1. CC1=C(C(=O)Nc2c(C)cccc2C)C(c2ccccc2Cl)C(C(=O)Nc2c(C)cccc2C)=C(C)N1
2. COc1ccc(NC(=O)/C(Cc2cc(=O)oc3cc(O)ccc23)=N\NC(C)(C)C)c(OC)c1

1. > 100 µM (inactive)
2. > 100 µM (inactive)

// each listed molecule needs a value for GI50
1. CCc1c(C)c(C#N)c(=S)n(C2OC(CO)C(O)C(O)C2O)c1C (stereo not given)
2. C=C1CC(COc2cc(=O)oc3ccccc23)(c2ccccc2)OC1=O (stereo not given)
3. Cc1ccc(NC(=O)C(=O)CC(=O)c2c(C)[n+]([O-])c3ccccc3[n+]2[O-])cc1C

> 100 µM (inactive)
1.08 µM (active)
> 100 µM (inactive)

###

tested on: SK-MEL-5; assay: NCI tumour cell line growth inhibition, 48 h
Activity calls are given as the source filed them. No stated cut-off is given here; in the data, active = GI50 up to about 1.1 µM and inactive = higher.
ATTRIBUTE_MEASURED: GI50

// each listed compound needs a value for GI50
1. COc1ccc2c(c1)/c(=C/C#N)c1c3ccccc3[n+](C)n21
2. C[C@@H]1O[C@@H](O[C@H]2[C@H](Oc3cc(O)c4c(=O)cc(-c5ccc(O)cc5)oc4c3)O[C@H](CO)[C@@H](O)[C@@H]2O)[C@H](O)[C@H](O)[C@H]1O [RHOIFOLIN]
3. N#CSC/C(Cl)=C/Cl.N#CSC/C(Cl)=C\Cl
4. N#Cc1cc(-c2nc3c(F)cccc3s2)ccc1N
5. Nc1nc(Cl)c2ncn(Cc3cccc(CCl)c3)c2n1

["6.62 µM (inactive)", "> 100 µM (inactive)", "> 100 µM (inactive)", "56.4 µM (inactive)", "5.7 µM (inactive)"]

###

Give GI50 for every item shown.
test system: RXF 393; assay: NCI tumour cell line growth inhibition, 48 h
Active and inactive are the calls of the source. Cut-off read from the data, not from the text of the source: active = GI50 up to about 1.1 µM and inactive = higher.

// each listed compound needs a value for GI50
1. OC(COC(c1ccccc1)(c1ccccc1)c1ccccc1)C(O)CC1SCCS1 (stereo unspecified)
2. Cc1c(/C=N/NC(=S)Nc2ccccc2Cl)c(=O)n(-c2ccccc2)n1C
3. O=[N+]([O-])c1cccc(C2=NN(c3ccccc3)C3c4cc(Br)ccc4OCC23)c1 (stereo unspecified)
4. COc1nc2ccc(Cl)c(C(O)c3ccccc3)c2nc1OC (stereo unspecified)
5. C1=C(c2ccccc2)O[C@H](COCc2ccccc2)C(OCc2ccccc2)[C@@H]1OCc1ccccc1 (stereo partly specified)
6. N=c1[nH]cnc2c1nnn2C1C=CC(COS(N)(=O)=O)C1 (stereo unspecified)

10.2 µM (inactive)
16.1 µM (inactive)
> 100 µM (inactive)
14.3 µM (inactive)
> 10 µM (inactive)
8.45 µM (inactive)

// each listed compound needs a value for GI50
1. COC(=O)c1sc2c(Cl)c(Cl)sc2c1Cl
2. Cc1[nH]c2ccccc2c1C1Cc2ccccc2N1C(=O)/C=C/C(=O)O (stereo unspecified)
3. N#Cc1ccc2[nH]c3c(c2c1)CC(=O)Nc1ccccc1-3
4. O=C(/C=C/c1ccccc1)/C=N/N1C(=S)N(c2ccccc2)C(=N\c2ccccc2)/C1=N/c1ccccc1

["> 100 µM (inactive)", "> 100 µM (inactive)", "> 100 µM (inactive)", "38.8 µM (inactive)"]

// each listed compound needs a value for GI50
1. OCC(O)C(O)C(O)C1SC(c2ccccc2)=NN1c1ccccc1 (stereo unspecified)
2. COc1cccc(CC2C(=O)N/C(=N\C(C)=O)N2C)c1OC(C)=O (stereo unspecified)

["20.4 µM (inactive)", "> 100 µM (inactive)"]

// each listed compound needs a value for GI50
1. O=C1C2C3C=C4c5ccccc5N(c5ccccc5)C4(C2C(=O)N1c1ccc([N+](=O)[O-])cc1)[C@H]1C(=O)N(c2ccc([N+](=O)[O-])cc2)C(=O)[C@@H]31 (stereo partly specified)
2. COc1ccc(NC(=O)C(=O)C2CNC(=O)NC2=O)c(OC)c1 (stereo unspecified)
3. Cc1nc(C)c(N2CCN(C(=O)O)CC2)c(O)n1
4. Cc1ccc(O)cc1.Cc1cccc(O)c1.Cc1ccccc1O

> 100 µM (inactive)
> 100 µM (inactive)
> 100 µM (inactive)
> 100 µM (inactive)
